biological target: human ERα-LBD (Homo sapiens); assay: biochemical; format: binding
Sequence (P03372 304-554): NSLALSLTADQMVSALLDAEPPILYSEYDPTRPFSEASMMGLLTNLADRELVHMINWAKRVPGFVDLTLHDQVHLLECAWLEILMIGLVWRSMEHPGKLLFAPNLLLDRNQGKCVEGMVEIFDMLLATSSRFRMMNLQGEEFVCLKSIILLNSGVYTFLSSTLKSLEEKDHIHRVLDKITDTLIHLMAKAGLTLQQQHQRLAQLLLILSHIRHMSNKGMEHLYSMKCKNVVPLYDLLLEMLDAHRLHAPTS
pKd: −log10 of the molar value.

{"molecule": "CCC(C)(c1ccc(O)cc1)c1ccc(O)cc1 [Bisphenol B]", "pKd": 3.95}

====

biological target: human ERβ-LBD (Homo sapiens)
Sequence (Q92731 264-498): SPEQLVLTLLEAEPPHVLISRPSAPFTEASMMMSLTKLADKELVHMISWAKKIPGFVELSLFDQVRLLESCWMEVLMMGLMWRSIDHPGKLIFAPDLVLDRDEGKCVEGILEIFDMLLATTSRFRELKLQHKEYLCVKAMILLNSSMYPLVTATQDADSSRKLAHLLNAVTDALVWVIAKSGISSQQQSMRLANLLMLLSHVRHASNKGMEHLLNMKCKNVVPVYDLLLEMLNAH

{"mol": "CCC(C)(c1ccc(O)cc1)c1ccc(O)cc1", "Kd": "51.3 µM"}
{"mol": "CC(C)(C)CC(C)(C)c1ccc(O)cc1", "Kd": "15.9 µM"}

Recorded values, source paper PMC12039421.
